compounds and their reported inhibition at 0.5 µM
Assayed target: BTK(h) (Homo sapiens)
Construct: purchased Upstate Biotechnology (Dundee, UK), KinaseProfiler service
Sequence (Q06187 whole entry): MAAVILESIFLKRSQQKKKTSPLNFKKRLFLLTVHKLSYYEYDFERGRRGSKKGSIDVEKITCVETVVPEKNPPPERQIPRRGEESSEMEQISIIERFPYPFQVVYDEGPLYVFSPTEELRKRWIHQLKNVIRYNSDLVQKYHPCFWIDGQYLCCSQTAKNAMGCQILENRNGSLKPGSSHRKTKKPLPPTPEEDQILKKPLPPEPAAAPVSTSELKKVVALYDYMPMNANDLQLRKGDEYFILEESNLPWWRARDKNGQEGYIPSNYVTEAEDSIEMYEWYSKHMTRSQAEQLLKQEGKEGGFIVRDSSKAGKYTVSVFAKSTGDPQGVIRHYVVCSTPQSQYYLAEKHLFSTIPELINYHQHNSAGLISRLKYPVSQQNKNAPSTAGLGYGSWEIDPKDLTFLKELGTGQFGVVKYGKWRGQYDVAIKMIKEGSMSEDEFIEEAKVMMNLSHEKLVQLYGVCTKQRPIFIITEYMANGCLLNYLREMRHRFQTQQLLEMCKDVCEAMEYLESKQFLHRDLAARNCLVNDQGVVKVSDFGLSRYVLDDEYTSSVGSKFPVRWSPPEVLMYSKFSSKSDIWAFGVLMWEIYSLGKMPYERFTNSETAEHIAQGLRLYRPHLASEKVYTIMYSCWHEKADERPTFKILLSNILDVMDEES
Procedure text: Upstate KinaseProfiler enzyme assay, BTK
Format: biochemical
Conditions: 500 nM compound; read-out: Percent inhibition at 500 nM BTK(h)
Measurement kind: inhibition at 0.5 µM

INSERT INTO assay_data (structure, observed_result) VALUES
  ('C=CC(=O)Nc1ccc(Sc2ccnc(Nc3cccc(N4CCOCC4)c3)n2)cc1', '100%'),
  ('C=CC(=O)Nc1ccc(Sc2ccnc(Nc3ccc(OC)c(O)c3)n2)cc1', '100%'),
  ('C=C(C)C(=O)Nc1cccc(Sc2ccnc(Nc3ccc(N4CCOCC4)cc3)n2)c1', '100%'),
  ('C=CC(=O)Nc1ccc(Sc2nc(Nc3ccc(N4CCOCC4)c(OC)c3)ncc2C)cc1', '80%'),
  ('C=CC(=O)Nc1ccc(Sc2nc(Nc3ccc(N4CCOCC4)cc3)ncc2C)cc1', '100%'),
  ('C=CC(=O)Nc1ccc(Sc2ccnc(Nc3ccc(N4CCOCC4)cc3)n2)c(Cl)c1C', '100%'),
  ('C=CC(=O)Nc1ccc(Sc2ccnc(Nc3ccc(N4CCC(N5CCCC5)CC4)cc3)n2)cc1', '100%'),
  ('C=CC(=O)Nc1cccc(Sc2ccnc(Nc3ccc(N4CCOCC4)cc3)n2)c1', '84%');

###

compounds and their reported GI50
Assayed target: BaF3 TELJAK3 cells (Homo sapiens)
Construct: fused on or other part: TEL (ETV6) N-terminal part, coding nucleotides 1-487, serves as the oligomerising partner; It is fused through a Sal I site to the JAK3 kinase domain and expressed from pTRE2 in BaF3 cells bearing pTET-off; P41212 (Transcription factor ETV6)
Sequence (P52333 1-1124): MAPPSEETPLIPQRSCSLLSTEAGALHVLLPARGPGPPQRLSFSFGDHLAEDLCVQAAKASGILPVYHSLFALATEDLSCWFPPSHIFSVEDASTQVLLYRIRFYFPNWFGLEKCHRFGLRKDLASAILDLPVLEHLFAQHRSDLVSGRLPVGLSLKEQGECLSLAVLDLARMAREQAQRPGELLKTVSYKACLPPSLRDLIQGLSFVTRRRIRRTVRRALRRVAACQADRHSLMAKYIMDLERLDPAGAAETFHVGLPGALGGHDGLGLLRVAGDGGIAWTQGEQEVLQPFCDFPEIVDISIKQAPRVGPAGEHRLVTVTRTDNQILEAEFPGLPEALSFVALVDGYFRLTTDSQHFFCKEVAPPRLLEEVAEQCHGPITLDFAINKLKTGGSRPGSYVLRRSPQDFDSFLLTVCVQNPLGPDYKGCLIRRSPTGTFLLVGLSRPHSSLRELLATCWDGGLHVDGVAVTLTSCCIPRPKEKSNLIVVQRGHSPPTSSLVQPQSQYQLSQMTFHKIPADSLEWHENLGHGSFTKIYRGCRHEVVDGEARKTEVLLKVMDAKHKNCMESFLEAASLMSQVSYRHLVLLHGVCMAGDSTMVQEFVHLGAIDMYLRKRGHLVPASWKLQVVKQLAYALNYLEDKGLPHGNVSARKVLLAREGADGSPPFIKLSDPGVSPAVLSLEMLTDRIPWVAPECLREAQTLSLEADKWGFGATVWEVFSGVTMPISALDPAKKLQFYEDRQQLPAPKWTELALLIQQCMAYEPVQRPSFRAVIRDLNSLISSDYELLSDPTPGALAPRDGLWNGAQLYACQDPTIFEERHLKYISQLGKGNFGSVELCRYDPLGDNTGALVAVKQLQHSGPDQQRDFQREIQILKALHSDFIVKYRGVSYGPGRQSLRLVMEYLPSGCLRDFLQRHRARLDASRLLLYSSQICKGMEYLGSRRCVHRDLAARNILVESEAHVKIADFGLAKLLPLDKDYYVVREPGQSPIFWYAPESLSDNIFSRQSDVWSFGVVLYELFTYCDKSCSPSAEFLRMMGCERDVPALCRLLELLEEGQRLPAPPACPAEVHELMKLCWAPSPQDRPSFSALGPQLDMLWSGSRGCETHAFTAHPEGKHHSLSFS
Procedure text: Cellular screening, BaF3 TEL:JAK3 cells, Alamar Blue
Assay type: cell-based
Conditions: 40 hr, read-out: BafT_J3 IC50_nM
Measurement kind: GI50

INSERT INTO results (compound, observed_result) VALUES
  ('C=CC(=O)Nc1cccc(Sc2ccnc(Nc3ccc(N4CCOCC4)cc3)n2)c1 [Compound 23]', '< 1000 nM'),
  ('NC(=O)c1nccn1Cc1ccc(Sc2ccnc(Nc3ccc(N4CCOCC4)cc3)n2)cc1 [Compound 149]', '< 5000 nM'),
  ('C=CC(=O)Nc1ccc(Sc2nc(Nc3ccc(OCCN4CCOCC4)cc3)ncc2C)cc1 [Compound 290]', '< 1000 nM'),
  ('COc1ccc(Nc2ncc(C)c(Sc3ccc(N)cc3)n2)cc1OC [Compound 240]', '< 5000 nM');

###

compounds and their reported GI50
Assayed target: BaF3 TELJAK2 cells (BafT_J2) (Homo sapiens)
Construct: fused on or other part: TEL (ETV6) N-terminal part, coding nucleotides 1-487, serves as the oligomerising partner; It is fused through a Sal I site to the JAK2 kinase domain and expressed from pTRE2 in BaF3 cells bearing pTET-off; P41212 (Transcription factor ETV6)
Sequence (O60674 whole entry, change not shown, the tested form may be a part): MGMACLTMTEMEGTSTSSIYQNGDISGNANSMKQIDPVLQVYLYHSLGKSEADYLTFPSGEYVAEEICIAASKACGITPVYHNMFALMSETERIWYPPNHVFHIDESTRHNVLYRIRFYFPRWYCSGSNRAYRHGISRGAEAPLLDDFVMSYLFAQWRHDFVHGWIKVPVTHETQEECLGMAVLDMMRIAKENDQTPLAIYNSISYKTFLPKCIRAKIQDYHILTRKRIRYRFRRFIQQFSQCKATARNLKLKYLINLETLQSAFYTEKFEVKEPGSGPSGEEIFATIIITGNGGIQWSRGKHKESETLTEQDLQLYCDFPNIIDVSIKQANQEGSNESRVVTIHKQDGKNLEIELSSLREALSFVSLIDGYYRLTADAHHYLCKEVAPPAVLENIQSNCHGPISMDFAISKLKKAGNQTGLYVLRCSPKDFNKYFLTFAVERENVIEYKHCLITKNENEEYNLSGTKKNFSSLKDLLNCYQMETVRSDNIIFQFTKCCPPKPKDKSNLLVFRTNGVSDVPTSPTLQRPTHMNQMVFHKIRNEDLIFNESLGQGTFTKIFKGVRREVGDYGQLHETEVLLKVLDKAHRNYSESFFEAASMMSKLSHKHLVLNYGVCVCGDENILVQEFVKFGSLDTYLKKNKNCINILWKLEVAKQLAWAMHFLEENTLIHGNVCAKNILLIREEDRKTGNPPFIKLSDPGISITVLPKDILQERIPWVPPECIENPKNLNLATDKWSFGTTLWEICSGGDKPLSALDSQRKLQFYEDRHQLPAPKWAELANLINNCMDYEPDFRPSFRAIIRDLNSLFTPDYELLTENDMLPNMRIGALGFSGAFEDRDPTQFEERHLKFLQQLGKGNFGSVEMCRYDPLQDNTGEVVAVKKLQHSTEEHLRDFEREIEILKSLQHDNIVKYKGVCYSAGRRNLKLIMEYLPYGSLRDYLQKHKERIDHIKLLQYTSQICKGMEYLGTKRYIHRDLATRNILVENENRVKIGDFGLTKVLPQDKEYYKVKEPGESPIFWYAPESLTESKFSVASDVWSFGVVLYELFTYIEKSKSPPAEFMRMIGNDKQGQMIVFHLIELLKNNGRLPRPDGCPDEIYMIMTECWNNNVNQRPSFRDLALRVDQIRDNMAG
Procedure text: Cellular screening, BaF3 TEL:JAK2 cells, Alamar Blue
Assay type: cell-based
Conditions: 40 hr, read-out: BafT_J2 IC50_nM
Description: For screening purposes, compounds were diluted in 96 well plates at a concentration of 20 μM. Plates were warmed at 37° C. for 30 minutes before the assay was performed. […] Compounds to be tested were added (10 μL, 10× final concentration) to a flat bottomed 96-well plate. […] The plates were then read at 544 nm.
Measurement kind: GI50

INSERT INTO assay_data (compound, observed_result) VALUES
  ('Cc1cnc(Nc2ccc(N3CCOCC3)cc2)nc1Sc1ccc2c(c1)CCCN2', '< 5 µM'),
  ('C=C(CN1CCOCC1)C(=O)Nc1cccc(Sc2ccnc(Nc3ccc(N4CCOCC4)cc3)n2)c1', '< 1 µM'),
  ('C=CC(=O)Nc1ccc(Sc2nc(Nc3ccc(N4CCC(O)C4)cc3)ncc2C)cc1 (centres unmarked)', '> 20 µM'),
  ('NC(=O)c1nccn1Cc1ccc(Sc2ccnc(Nc3ccc(N4CCOCC4)cc3)n2)cc1', '< 5 µM'),
  ('N#CCc1ccc(Sc2ccnc(Nc3ccc(N4CCOCC4)cc3)n2)cc1', '> 20 µM'),
  ('C=CC(=O)NCc1ccc(Sc2ccnc(Nc3ccc(N4CCOCC4)cc3)n2)cc1', '< 20 µM'),
  ('N#Cc1c(N)ncn1Cc1cccc(Sc2ccnc(Nc3ccc(N4CCOCC4)cc3)n2)c1', '< 5 µM'),
  ('CCC(=O)Nc1ccc(Sc2nc(Nc3ccc(N4CCOCC4)cc3)ncc2Cl)cc1', '> 20 µM'),
  ('C=CC(=O)Nc1ccc(Sc2nc(Nc3ccc(N4CCOCC4)nc3)ncc2C)cc1', '< 5 µM'),
  ('C=CC(=O)Nc1ccc(Sc2ccnc(Nc3ccc(N4CCS(=O)(=O)CC4)cc3)n2)cc1', '> 20 µM'),
  ('N#Cc1nnnn1Cc1ccc(Sc2ccnc(Nc3ccc(N4CCOCC4)cc3)n2)cc1', '< 20 µM'),
  ('C=CC(=O)Nc1ccc(Sc2ccnc(Nc3cccc(C(=O)OC)c3)n2)cc1', '< 20 µM'),
  ('Nc1ccc(Sc2nc(Nc3ccc(N4CCOCC4)cc3)ncc2Cl)cc1', '> 20 µM'),
  ('C=CC(=O)Nc1ccc(Sc2ccnc(Nc3cc(C)cc(C)c3)n2)cc1', '< 5 µM'),
  ('C=CC(=O)Nc1ccc(Sc2ccnc(Nc3ccc(S(=O)(=O)N4CCOCC4)cc3)n2)cc1', '< 20 µM'),
  ('C=CC(=O)Nc1ccc(Sc2ccnc(Nc3ccccc3)n2)cc1', '< 20 µM'),
  ('C=CC(=O)Nc1ccc(Sc2ccnc(Nc3cccc(N4CCOCC4)c3)n2)cc1', '< 5 µM');

###

Observed IC50 for UniProtKB O60674, reported per entry below.
Measurement kind: IC50

INSERT INTO assay_data (molecule, measurement_kind, observed_result) VALUES
  ('C=CC(=O)NCc1ccc(Sc2ccnc(Nc3ccc(N4CCOCC4)cc3)n2)cc1', 'IC50', '> 1000 nM'),
  ('C=CC(=O)Nc1ccc(Sc2ccnc(Nc3ccc4c(c3)OCO4)n2)cc1', 'IC50', '> 1000 nM'),
  ('Cc1cnc(Nc2ccc(N3CCOCC3)cc2)nc1Sc1ccc(NC2CCOC2=O)cc1 (centres unmarked)', 'IC50', '> 1000 nM'),
  ('C=CC(=O)Nc1ccc(Sc2nc(Nc3ccc(N4CCN(C)CC4)cc3)ncc2C)cc1', 'IC50', '< 1000 nM'),
  ('C=CC(=O)Nc1ccc(Sc2ccnc(Nc3cccc(N4CCCC4)c3)n2)cc1', 'IC50', '> 1000 nM'),
  ('Cc1cnc(Nc2ccc(N3CCOCC3)cc2)nc1Sc1ccc(N)cc1', 'IC50', '< 500 nM'),
  ('Cc1cnc(Nc2ccc(N3CCOCC3)cc2)nc1Sc1ccc(NC(=O)COCC(=O)O)cc1', 'IC50', '< 500 nM'),
  ('Cc1cnc(Nc2ccc(N3CCOCC3)cc2)nc1Sc1ccc(NC(=O)CSCC(=O)O)cc1', 'IC50', '< 500 nM'),
  ('Cc1cnc(Nc2ccc(N3CCOCC3)cc2)nc1Sc1ccc(C(=O)N2CCCC2)cc1', 'IC50', '< 1000 nM'),
  ('C=CC(=O)Nc1ccc(Sc2nc(Nc3ccc(N4CCS(=O)(=O)CC4)cc3)ncc2C)cc1', 'IC50', '> 1000 nM'),
  ('C=CC(=O)Nc1ccc(Sc2ccnc(Nc3ccc(S(N)(=O)=O)c(OC)c3)n2)cc1', 'IC50', '> 1000 nM'),
  ('C=CC(=O)Nc1ccc(Sc2nc(Nc3ccc(N4CCOCC4)cc3)ncc2C)cc1CC', 'IC50', '> 1000 nM'),
  ('CC#CC(=O)Nc1ccc(Sc2ccnc(Nc3ccc(N4CCOCC4)cc3)n2)cc1', 'IC50', '> 1000 nM'),
  ('Cc1cnc(Nc2ccc(N3CCOCC3)cc2)nc1Sc1ccc(NC(=O)/C=C/Cl)cc1', 'IC50', '> 1000 nM'),
  ('C=CC(=O)Nc1cccc(Sc2ccnc(Nc3ccc(OC)cc3)n2)c1', 'IC50', '> 1000 nM'),
  ('C=CC(=O)Nc1ccc(Sc2ccnc(Nc3cccc(O)c3)n2)cc1', 'IC50', '> 1000 nM'),
  ('C=CC(=O)Nc1ccc(Sc2nc(Nc3cccc(OC)c3)ncc2C)cc1', 'IC50', '> 1000 nM');
